Biological target: Neutral ceramidase (Homo sapiens) (UniProt Q9NR71)
Sequence (Q9NR71 whole entry): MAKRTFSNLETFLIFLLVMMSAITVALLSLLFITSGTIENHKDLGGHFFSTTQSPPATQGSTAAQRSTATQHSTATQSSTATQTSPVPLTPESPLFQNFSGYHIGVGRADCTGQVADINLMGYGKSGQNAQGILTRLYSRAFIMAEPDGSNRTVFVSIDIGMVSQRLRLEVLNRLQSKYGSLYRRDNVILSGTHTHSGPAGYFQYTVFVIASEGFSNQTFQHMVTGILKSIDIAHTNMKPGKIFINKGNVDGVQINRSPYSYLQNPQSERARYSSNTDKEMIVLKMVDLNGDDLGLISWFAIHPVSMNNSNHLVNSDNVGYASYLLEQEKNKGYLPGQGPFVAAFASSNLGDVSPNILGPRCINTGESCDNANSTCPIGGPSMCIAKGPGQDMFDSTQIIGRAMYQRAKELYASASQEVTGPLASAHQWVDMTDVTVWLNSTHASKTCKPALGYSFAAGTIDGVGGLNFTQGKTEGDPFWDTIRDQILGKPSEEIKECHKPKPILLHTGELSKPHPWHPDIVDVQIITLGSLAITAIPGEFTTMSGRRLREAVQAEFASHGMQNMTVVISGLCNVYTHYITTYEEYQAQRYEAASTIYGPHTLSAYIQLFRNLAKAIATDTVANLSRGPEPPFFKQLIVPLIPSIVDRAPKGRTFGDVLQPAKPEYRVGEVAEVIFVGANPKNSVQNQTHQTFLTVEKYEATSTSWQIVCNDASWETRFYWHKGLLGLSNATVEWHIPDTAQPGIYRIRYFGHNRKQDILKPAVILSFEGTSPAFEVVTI
Test: Activity of human recombinant neutral ceramidase assessed as hydrolysis at 20 uM after 60 mins by TLC-based fluorescence imaging
Parameters: scale not given: the % may be the effect or the level left
endpoint: Activity (%)
Only the number, expressed in %, is required.

In the examples that follow, each entry is paired with its recorded Activity.
given_smiles: CCCCCCCCCCCCCCCC(=O)N[C@@H](CO)[C@H](O)/C=C/CCCCCCCCCOc1ccc2c(=O)cc3oc4cc(N(CC)CC)ccc4nc-3c2c1
recorded_measurement: 3.9
--
given_smiles: CCCCCCCCCCCCCCCC(=O)N[C@@H](CO)[C@H](O)/C=C/CCCCCCCCCNc1ccc([N+](=O)[O-])c2nonc12
recorded_measurement: 6.2
--
given_smiles: CCCCCCCCCCCCC/C=C/[C@@H](O)[C@H](CO)NC(=O)CCCCCCCCCCCOc1ccc2c(=O)cc3oc4cc(N(CC)CC)ccc4nc-3c2c1
recorded_measurement: 3.3

Switching to the query record.
// sample CCCCCCCCCCCCC/C=C/[C@@H](O)[C@H](CO)NC(=O)CCCCCCCCCCCNc1ccc([N+](=O)[O-])c2nonc12 , its Activity was 9.9
